Biological target: CCK receptor sites (Mus musculus, UniProt P56481)
Construct: from tissue; host or cells: cerebral cortex membranes of male CFLP mice
Sequence (P56481 1-453): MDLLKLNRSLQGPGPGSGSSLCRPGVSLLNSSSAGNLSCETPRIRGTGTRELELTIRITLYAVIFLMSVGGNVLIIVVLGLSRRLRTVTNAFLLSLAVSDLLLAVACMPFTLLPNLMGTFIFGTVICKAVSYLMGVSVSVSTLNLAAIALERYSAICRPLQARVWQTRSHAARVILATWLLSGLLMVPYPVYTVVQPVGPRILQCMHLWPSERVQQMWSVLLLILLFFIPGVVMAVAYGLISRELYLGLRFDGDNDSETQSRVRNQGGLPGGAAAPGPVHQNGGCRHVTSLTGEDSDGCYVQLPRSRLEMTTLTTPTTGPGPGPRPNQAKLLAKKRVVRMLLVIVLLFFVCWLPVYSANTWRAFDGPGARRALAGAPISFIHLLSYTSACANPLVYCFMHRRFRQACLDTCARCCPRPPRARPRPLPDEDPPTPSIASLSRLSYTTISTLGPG
Assay: CCK receptor binding, displacement of tritiated pentagastrin from mouse cerebral cortex membranes
Settings: 2 nM tritiated pentagastrin, mouse cerebral cortical membranes; Ki from IC50 by Cheng-Prusoff; read-out: Ki
Each entry below lists one item and its recorded log10 of Ki value.
Hello, just confirming the data are log10 of Ki with units of µM.

# compound, log10 of Ki
records = [
    ("CC(Cc1n[nH]c2ccccc12)(NC(=O)OC1C2CC3CC(C2)CC1C3)C(=O)NCCc1ccccc1 (stereo not shown) [drawing 38 (H H H H H)]", -1.00),
]

Consider the compound shown here: CC(Cc1ccc2ccccc2n1)(NC(=O)OC1C2CC3CC(C2)CC1C3)C(=O)N[C@H](CO)Cc1ccccc1 (stereo partly shown) [drawing 36 (Diast I)] What is its recorded log10 of Ki?
-0.39

Param item: CC(Cc1ccccn1)(NC(=O)OC1C2CC3CC(C2)CC1C3)C(=O)NC(CO)Cc1ccccc1 (single isomer, unassigned) [drawing 14 (Diast I)]
0.00

Param item: CC(Cc1csc2ccccc12)(NC(=O)OC1C2CC3CC(C2)CC1C3)C(=O)NCCc1ccccc1 (stereo not shown) [drawing 47 (H H H H H)]
-0.12

Param item: CC(Cc1cccc2ccccc12)(NC(=O)OC1C2CC3CC(C2)CC1C3)C(=O)NC(CO)Cc1ccccc1 (stereo not shown) [drawing 26]
-1.85

Param item: CC(CC1C=Cc2ccccc2N1)(NC(=O)OC1C2CC3CC(C2)CC1C3)C(=O)NCC(NC(=O)CCC(=O)O)c1ccccc1 (stereo not shown)
0.48

Param item: CC(Cc1cnc2ccccc2c1)(NC(=O)OC1C2CC3CC(C2)CC1C3)C(=O)NCCc1ccccc1 (stereo not shown)
-0.52
